STUDY TARGET: SS
PROTOCOL DETAILS: BIAcore
READOUT LABEL: Kd (nM)

BINDER	READOUT LABEL	REPORTED MEASUREMENT
Ly6G6D (other) NRMRCYNCGGSPSSSCKEAVTTCGEGRPQPGLEQIKLPGNPPVTLIHQHPACVAAHHCNQVETESVGDVTYPAHRDCYLGDLCNS	Kd	2.7
